Value source: ChEMBL document CHEMBL1140822

Entries annotated with measured EC50
- study_target: Transketolase (Homo sapiens, UniProt P29401)
- assay_details: Inhibition of transketolase in human HCT116 cells
- Assay type: cell-based, HCT-116
quantity_measured: EC50 (µM)

- CC(=O)OCC/C(SC(C)=O)=C(\C)N(C=O)Cc1ccc(C)nc1N: 0.008
- Cc1ccc(C[n+]2csc(CCO)c2C)c(N)n1.[Cl-]: 0.018
- Cc1c(CCO)sc[n+]1Cc1cccnc1N: 0.11
- Cc1ccc(C[n+]2c(C)sc(CCO)c2C)c(N)n1: 0.028
- CC(=O)N(Cc1ccc(C)nc1N)/C(C)=C(/CCO)SS/C(CCO)=C(/C)N(Cc1ccc(C)nc1N)C(C)=O: 0.032
- C/C(=C(\CCO)SSCCC(=O)O)N(C=O)Cc1ccc(C)nc1N: 0.052
- C/C(=C(\CCOC(=O)c1ccccc1)SC(=O)c1ccccc1)N(C=O)Cc1ccc(C)nc1N: 0.028

----------
- assay_details: AUC in rat at 3 mg/kg, iv
- Type: ADME, organism-based
- Parameters: dose 3 mg/kg, route intravenous
- protocol_conditions: plasma
Listed below: AUC values for each entry.
quantity_measured: AUC (ng·h/mL)

- C/C(=C(\CCO)SCOC(=O)C(C)(C)C)N(C=O)Cc1ccc(C)nc1N: 79200
- C/C(=C(\CCO)SS/C(CCO)=C(/C)N(C=O)Cc1ccc(C)nc1N)N(C=O)Cc1ccc(C)nc1N: 1590
- Cc1ccc(C[n+]2csc(CCO)c2C)c(N)n1.[Cl-]: 1250

----------
- assay_details: Mean residence time in rat at 3 mg/kg, iv
- Type: ADME, organism-based
- Set-up: dose 3 mg/kg, route intravenous
- protocol_conditions: in vivo
Quick reference for MRT among some compounds
quantity_measured: MRT

* C/C(=C(\CCO)SCOC(=O)C(C)(C)C)N(C=O)Cc1ccc(C)nc1N | 48.3 h
* C/C(=C(\CCO)SS/C(CCO)=C(/C)N(C=O)Cc1ccc(C)nc1N)N(C=O)Cc1ccc(C)nc1N | 12.7 h
* Cc1ccc(C[n+]2csc(CCO)c2C)c(N)n1.[Cl-] | 0.72 h

----------
- assay_details: Clearance in rat at 3 mg/kg, iv
- Type: ADME, organism-based
- Design: dose 3 mg/kg, route intravenous
- protocol_conditions: in vivo
quantity_measured: clearance (mL/min/kg)

• C/C(=C(\CCO)SS/C(CCO)=C(/C)N(C=O)Cc1ccc(C)nc1N)N(C=O)Cc1ccc(C)nc1N = 32.5
• Cc1ccc(C[n+]2csc(CCO)c2C)c(N)n1.[Cl-] = 41.3
• C/C(=C(\CCO)SCOC(=O)C(C)(C)C)N(C=O)Cc1ccc(C)nc1N = 0.63

----------
The compounds listed here are annotated with their pEC50.
- study_target: UniProt P29401
- Sequence (P29401 whole entry): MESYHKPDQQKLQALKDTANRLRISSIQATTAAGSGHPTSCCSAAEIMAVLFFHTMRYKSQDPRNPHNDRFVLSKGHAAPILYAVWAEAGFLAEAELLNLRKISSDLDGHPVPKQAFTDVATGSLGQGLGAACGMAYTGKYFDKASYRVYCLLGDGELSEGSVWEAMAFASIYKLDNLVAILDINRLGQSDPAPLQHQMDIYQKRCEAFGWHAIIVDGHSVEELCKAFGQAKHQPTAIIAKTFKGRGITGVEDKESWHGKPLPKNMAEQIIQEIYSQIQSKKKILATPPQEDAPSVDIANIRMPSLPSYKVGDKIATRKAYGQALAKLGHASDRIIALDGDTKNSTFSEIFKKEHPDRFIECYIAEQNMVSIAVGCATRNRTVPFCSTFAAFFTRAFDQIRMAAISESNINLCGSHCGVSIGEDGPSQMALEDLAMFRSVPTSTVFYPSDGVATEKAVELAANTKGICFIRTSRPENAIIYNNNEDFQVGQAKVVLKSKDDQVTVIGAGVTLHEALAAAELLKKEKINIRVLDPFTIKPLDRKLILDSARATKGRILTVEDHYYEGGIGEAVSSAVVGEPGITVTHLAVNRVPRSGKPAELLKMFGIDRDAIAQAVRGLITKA
- assay_details: Inhibition of transketolase in human HCT116 cells
pEC50: −log10 of the molar value.
quantity_measured: pEC50

- Cc1ccc(CN(C=O)/C=C(/CCO)SS/C(=C\N(C=O)Cc2ccc(C)nc2N)CCO)c(N)n1: 3.99
- C/C(=C(\CCO)SS/C(CCO)=C(/C)N(C=O)Cc1cccnc1N)N(C=O)Cc1cccnc1N: 6.32
- C/C(=C1\CCOC(=O)S1)N(C=O)Cc1ccc(C)nc1N: 7.82
- C/C(=C(\CCO)SS/C(CCO)=C(/C)N(C=O)Cc1ccc(C)nc1N)N(C=O)Cc1ccc(C)nc1N: 7.92
- C/C(=C(\CCO)SS/C(CCO)=C(/C)N(C=O)Cc1ccc(Cl)nc1N)N(C=O)Cc1ccc(Cl)nc1N: 8.10
- CCCCS/C(CCO)=C(/C)N(C=O)Cc1ccc(C)nc1N: 5.22
- Cc1ccc(C[n+]2csc(CCO)c2)c(N)n1: 5.02
- C/C(=C(\CCO)SCOC(=O)C(C)(C)C)N(C=O)Cc1ccc(C)nc1N: 6.94
- Cc1c(CCO)sc[n+]1Cc1ccc(Cl)nc1N: 8.05
- C/C(=C(\CCO)SSCCO)N(C=O)Cc1ccc(C)nc1N: 7.89

----------
- assay_details: Volume of distribution at steady state in rat at 3 mg/kg, iv
- Type: ADME, organism-based
- Design: dose 3 mg/kg, route intravenous
- protocol_conditions: in vivo, read-out: Vdss
Vd values by entry
quantity_measured: Vd (L/kg)

* C/C(=C(\CCO)SCOC(=O)C(C)(C)C)N(C=O)Cc1ccc(C)nc1N | 1.83
* C/C(=C(\CCO)SS/C(CCO)=C(/C)N(C=O)Cc1ccc(C)nc1N)N(C=O)Cc1ccc(C)nc1N | 19.3
* Cc1ccc(C[n+]2csc(CCO)c2C)c(N)n1.[Cl-] | 1.98

----------
- assay_details: Cmax in rat at 3 mg/kg, iv
- Assay type: ADME, organism-based
- Design: dose 3 mg/kg, route intravenous
- protocol_conditions: in vivo
quantity_measured: Cmax

* C/C(=C(\CCO)SCOC(=O)C(C)(C)C)N(C=O)Cc1ccc(C)nc1N | 3020 ng/mL
* C/C(=C(\CCO)SS/C(CCO)=C(/C)N(C=O)Cc1ccc(C)nc1N)N(C=O)Cc1ccc(C)nc1N | 1120 ng/mL
* Cc1ccc(C[n+]2csc(CCO)c2C)c(N)n1.[Cl-] | 6610 ng/mL
